System Name: CDK7 (Homo sapiens)
Construct: purchased Life Technologies (assay service)
Procedure Details: Adapta kinase assay (Life Technologies), CDK7
Assay type: biochemical
Condition Summary: Table 1C, co-factors cyclin H and MNAT1, read-out: CDK7 IC50
pIC50: −log10 of the molar value.
Metric: pIC50

CN(C)C/C=C/C(=O)Nc1ccc(C(=O)N[C@H]2CCC[C@@H](Nc3ncc(Cl)c(-c4c[nH]c5ccccc45)n3)C2)cc1 = > 7.00
CN(C)C/C=C/C(=O)Nc1ccc(C(=O)NC2(C)CCCC(Nc3ncc(Cl)c(-c4c[nH]c5ccccc45)n3)C2)cc1 (stereo not drawn) = > 7.00
C=CC(=O)Nc1cccc(C(=O)N[C@H]2CC[C@H](Nc3ncc(Cl)c(-c4c[nH]c5ccccc45)n3)CC2)c1 = > 7.00
CN(C)C/C=C/C(=O)Nc1ccc(C(=O)NC2CCCC(Nc3ncc(Cl)c(-c4c[nH]c5ccccc45)n3)C2)c(F)c1 (stereo not drawn) = > 7.00
CN(C)C/C=C/C(=O)Nc1ccc(C(=O)N[C@H]2C[C@@H](Nc3ncc(Cl)c(-c4c[nH]c5ccccc45)n3)CC(F)(F)C2)cc1 = < 6.00

INPUT: Value wanted: pIC50 (CDK7 (Homo sapiens)) of entry CN(C)C/C=C/C(=O)Nc1ccc(C(=O)NC2CC(Nc3ncc(Cl)c(-c4c[nH]c5ccccc45)n3)CC(F)(F)C2)cc1 (racemic)
OUTPUT: > 7.00

====

System Name: CDK9/cyclin K (Homo sapiens)
Sequence (P50750 whole entry): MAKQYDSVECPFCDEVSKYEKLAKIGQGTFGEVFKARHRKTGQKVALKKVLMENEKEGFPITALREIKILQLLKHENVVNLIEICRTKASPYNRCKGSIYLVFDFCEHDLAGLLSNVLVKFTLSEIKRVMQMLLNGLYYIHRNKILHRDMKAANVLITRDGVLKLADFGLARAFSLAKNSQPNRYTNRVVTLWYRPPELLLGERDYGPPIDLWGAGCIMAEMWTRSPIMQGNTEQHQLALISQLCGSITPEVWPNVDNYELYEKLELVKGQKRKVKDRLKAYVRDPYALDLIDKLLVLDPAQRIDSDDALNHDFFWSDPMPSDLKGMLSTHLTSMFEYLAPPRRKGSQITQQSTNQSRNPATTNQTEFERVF
Sequence (O75909 whole entry partner): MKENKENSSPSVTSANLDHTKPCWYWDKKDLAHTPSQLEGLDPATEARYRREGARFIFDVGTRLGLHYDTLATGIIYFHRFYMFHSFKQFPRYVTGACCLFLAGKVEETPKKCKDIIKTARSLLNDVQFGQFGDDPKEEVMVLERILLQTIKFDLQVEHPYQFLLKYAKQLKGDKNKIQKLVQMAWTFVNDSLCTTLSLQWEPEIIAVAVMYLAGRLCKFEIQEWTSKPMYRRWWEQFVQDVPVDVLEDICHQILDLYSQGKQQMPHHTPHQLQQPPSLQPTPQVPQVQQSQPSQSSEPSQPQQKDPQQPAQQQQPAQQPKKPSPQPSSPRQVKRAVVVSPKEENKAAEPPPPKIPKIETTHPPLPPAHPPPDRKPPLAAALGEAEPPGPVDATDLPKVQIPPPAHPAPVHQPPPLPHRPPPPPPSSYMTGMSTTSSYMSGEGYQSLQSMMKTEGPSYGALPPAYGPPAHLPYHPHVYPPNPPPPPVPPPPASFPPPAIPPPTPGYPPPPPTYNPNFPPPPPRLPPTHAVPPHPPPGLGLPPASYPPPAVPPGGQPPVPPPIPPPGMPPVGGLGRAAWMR
Procedure Details: LanthaScreen Eu kinase assay (Life Technologies), CDK9/cyclin K
pIC50: −log10 of the molar value.
Metric: pIC50

INPUT: Query: pIC50; subject: CN(C)C/C=C/C(=O)Nc1ccc(C(=O)NC2CCCC(Nc3ncc(Cl)c(-c4c[nH]c5ccccc45)n3)C2)cc1 (stereo not shown)
OUTPUT: 6.00 to 7.00

====

I'd be grateful if you could share measured IC50 for these entries.
Tested on: Jurkat cells
Procedure Details: Cell proliferation (CellTiter-Glo, 72 hour), Jurkat
Type: cell-based
Condition Summary: Homo sapiens, blood cancer cell line

Consider the following illustrative entries.
CN(C)C/C=C/C(=O)Nc1ccc(C(=O)NC2CC(Nc3ncc(Cl)c(-c4c[nH]c5ccccc45)n3)CC(F)(F)C2)cc1 (racemic) = < 500 nM
C=CC(=O)Nc1ccc(C(=O)N[C@H]2CCC[C@@H](Nc3ncc(C4CC4)c(-c4c[nH]c5ccccc45)n3)C2)cc1 = 500 to 5000 nM
C=CC(=O)Nc1ccc(C(=O)N[C@H]2CCC[C@@H](Nc3ncc(Cl)c(-c4c[nH]c5ccccc45)n3)C2)c(N2CCOCC2)c1 = < 500 nM
O=C(/C=C/CN1CCOCC1)Nc1ccc(C(=O)N[C@H]2CCC[C@@H](Nc3ncc(Cl)c(-c4c[nH]c5ccccc45)n3)C2)cc1 = < 500 nM
CN(C)C/C=C/C(=O)Nc1ccc(C(=O)N[C@@H]2CCC[C@H](Nc3ncc(Cl)c(-c4c[nH]c5ccccc45)n3)C2)cc1 = 500 to 5000 nM
C=CC(=O)Nc1ccc(C(=O)N[C@H]2CCC[C@@H](Nc3ncc(Cl)c(-c4cn(C)c5ccccc45)n3)C2)cc1 = < 500 nM
CN(C)C/C=C/C(=O)Nc1ccc(C(=O)NC2CCCC(Nc3ncc(Cl)c(-c4c[nH]c5ccccc45)n3)C2)c(F)c1 (stereo not shown) = < 500 nM
Cc1nc(C)c(-c2nc(NC3CCCC(NC(=O)c4ccc(NC(=O)/C=C/CN(C)C)cc4)C3)ncc2Cl)s1 (stereo not shown) = < 500 nM

Provide each entry's IC50 from the list below.
1. CN(C)C/C=C/C(=O)Nc1ccc(C(=O)NC2CC(F)CC(Nc3ncc(Cl)c(-c4c[nH]c5ccccc45)n3)C2)cc1 (racemic)
2. Cc1noc(C)c1-c1nc(N[C@@H]2CCC[C@H](NC(=O)c3ccc(NC(=O)/C=C/CN(C)C)cc3)C2)ncc1Cl
3. CC(C)=CC(=O)Nc1ccc(C(=O)N[C@H]2CCC[C@@H](Nc3ncc(Cl)c(-c4c[nH]c5ccccc45)n3)C2)cc1
4. CN(C)C/C=C/C(=O)Nc1ccc(C(=O)N[C@H]2C[C@@H](Nc3ncc(Cl)c(-c4c[nH]c5ccccc45)n3)CC(F)(F)C2)cc1
5. C=CC(=O)Nc1ccc(C(=O)N[C@H]2CCC[C@@H](Nc3ncc(F)c(-c4c[nH]c5ccccc45)n3)C2)cc1

OUTPUT:
< 500 nM
< 500 nM
500 to 5000 nM
500 to 5000 nM
< 500 nM

====

System Name: CDK7 (Homo sapiens)
Construct: purchased Life Technologies (assay service)
Procedure Details: Adapta kinase assay (Life Technologies), CDK7
Type: biochemical
Condition Summary: Table 1C, co-factors cyclin H and MNAT1, read-out: CDK7 IC50
Metric: IC50

Consider the following illustrative entries.
Cc1[nH]c2ccccc2c1-c1nc(N[C@@H]2CCC[C@H](NC(=O)c3ccc(NC(=O)/C=C/CN(C)C)cc3)C2)ncc1Cl = < 100 nM
CN(C)C/C=C/C(=O)Nc1ccc(C(=O)N[C@H]2CCC[C@@H](Nc3ncc(Cl)c(-c4cn(C)c5ccccc45)n3)C2)cc1 = < 100 nM
CN(C)C/C=C/C(=O)Nc1ccc(C(=O)NC23CC4CC(C2)CC(Nc2ncc(Cl)c(-c5c[nH]c6ccccc56)n2)(C4)C3)cc1 = 100 to 1000 nM
C=CC(=O)Nc1ccc(C(=O)N[C@H]2CCC[C@@H](Nc3ncc(Cl)c(-c4c(C)noc4C)n3)C2)cc1 = < 1000 nM
C[Si](C)(C)C#CC(=O)Nc1ccc(C(=O)NC23CCCC(Nc4ncc(Cl)c(-c5c[nH]c6ccccc56)n4)(C2)C3)cc1 = < 100 nM

Then there is this compound:
INPUT: Query: IC50; subject: CN(C)C/C=C/C(=O)Nc1ccc(C(=O)NC2CC(F)CC(Nc3ncc(Cl)c(-c4c[nH]c5ccccc45)n3)C2)cc1 (racemic)
OUTPUT: < 100 nM

====

System Name: CDK7 (Homo sapiens, UniProt P50613)
Construct: purchased Life Technologies (assay service)
Sequence (P50613 whole entry): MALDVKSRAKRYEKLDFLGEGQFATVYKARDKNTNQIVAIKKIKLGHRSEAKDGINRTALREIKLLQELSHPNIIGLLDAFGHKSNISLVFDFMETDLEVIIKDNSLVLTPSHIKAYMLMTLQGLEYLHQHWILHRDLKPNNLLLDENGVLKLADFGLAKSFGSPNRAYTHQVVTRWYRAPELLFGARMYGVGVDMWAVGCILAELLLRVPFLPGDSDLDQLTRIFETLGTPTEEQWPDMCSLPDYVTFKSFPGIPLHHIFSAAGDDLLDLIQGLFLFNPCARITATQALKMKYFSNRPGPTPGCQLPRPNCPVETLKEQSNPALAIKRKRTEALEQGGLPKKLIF
Sequence (P51946 whole entry partner): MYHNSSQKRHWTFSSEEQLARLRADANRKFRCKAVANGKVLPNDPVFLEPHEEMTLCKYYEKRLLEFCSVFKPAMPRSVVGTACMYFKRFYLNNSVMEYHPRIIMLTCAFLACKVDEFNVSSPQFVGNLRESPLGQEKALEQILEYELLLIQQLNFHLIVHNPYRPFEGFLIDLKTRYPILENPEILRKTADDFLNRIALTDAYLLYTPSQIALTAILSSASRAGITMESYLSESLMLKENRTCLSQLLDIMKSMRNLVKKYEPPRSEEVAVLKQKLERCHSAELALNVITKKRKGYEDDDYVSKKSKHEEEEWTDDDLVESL
Sequence (P51948 whole entry partner): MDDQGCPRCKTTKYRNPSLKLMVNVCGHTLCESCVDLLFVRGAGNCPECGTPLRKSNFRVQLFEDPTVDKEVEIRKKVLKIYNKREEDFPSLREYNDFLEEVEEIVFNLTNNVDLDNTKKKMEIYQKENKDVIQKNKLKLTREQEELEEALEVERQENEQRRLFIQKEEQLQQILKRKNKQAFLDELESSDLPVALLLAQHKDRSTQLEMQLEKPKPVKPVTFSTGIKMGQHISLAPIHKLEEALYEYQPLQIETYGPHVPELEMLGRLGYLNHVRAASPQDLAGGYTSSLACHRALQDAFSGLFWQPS
Procedure Details: Adapta kinase assay (Life Technologies), CDK7
Type: biochemical
Condition Summary: Table 1C, co-factors cyclin H and MNAT1, read-out: CDK7 IC50
pIC50: −log10 of the molar value.
I'd be grateful if you could share measured pIC50 for these entries.

Consider the following illustrative entries.
C=CC(=O)Nc1cccc(CO[C@H]2CC[C@H](Nc3ncc(Cl)c(-c4c[nH]c5ccccc45)n3)CC2)c1 = < 6.00
CN(C)C/C=C/C(=O)Nc1ccc(S(=O)(=O)N[C@H]2CCC[C@@H](Nc3ncc(Cl)c(-c4c[nH]c5ccccc45)n3)C2)cc1 = 6.00 to 7.00
C=CC(=O)Nc1ccc(C(=O)N[C@H]2CCC[C@@H](Nc3ncc(Cl)c(-c4c[nH]c5ccccc45)n3)C2)cc1 = > 7.00
CON(C)C/C=C/C(=O)Nc1ccc(C(=O)N[C@H]2CCC[C@@H](Nc3ncc(Cl)c(-c4c[nH]c5ccccc45)n3)C2)cc1 = 6.00 to 7.00
CN(C)C/C=C/C(=O)Nc1cccc(C(=O)NC2CCC(Nc3ncc(Cl)c(-c4c[nH]c5ccccc45)n3)CC2)c1 (stereo not drawn) = > 7.00

Then there is this molecule:
INPUT: Query: pIC50; subject: `C=CC(=O)Nc1ccc([C@@H](N[C@H]2CCC[C@@H](Nc3ncc(Cl)c(-c4c[nH]c5ccccc45)n3)C2)C(F)(F)F)cc1`
OUTPUT: < 6.00

====

Test system: Jurkat cells
Procedure Details: Cell proliferation (CellTiter-Glo, 72 hour), Jurkat
Format: cell-based
Condition Summary: Homo sapiens, blood cancer cell line
pIC50: −log10 of the molar value.
Metric: pIC50

Consider the following illustrative entries.
CN(C)C/C=C/C(=O)Nc1ccc(C(=O)N[C@H]2CCC[C@@H](Nc3ncc(Cl)c(-c4c[nH]c5ccccc45)n3)C2)cc1F [Compound 126] = > 6.30
CN(C)C/C=C/C(=O)Nc1ccc(C(=O)N[C@H]2CCC[C@H](Nc3ncc(Cl)c(-c4c[nH]c5ccccc45)n3)C2)cc1 [compound 103] = 5.30 to 6.30

Provide each entry's pIC50 from the list below.
1. CN(C)C/C=C/C(=O)Nc1ccc(C(=O)NC2CC(O)CC(Nc3ncc(Cl)c(-c4c[nH]c5ccccc45)n3)C2)cc1 (racemic) [Compound 109]
2. CN(C)C/C=C/C(=O)Nc1ccc(C(=O)N[C@@H]2C[C@H](F)C[C@H](Nc3ncc(Cl)c(-c4c[nH]c5ccccc45)n3)C2)cc1 [Compound 120]
3. CN(C)C/C=C/C(=O)Nc1ccc(C(=O)N[C@H]2CCC[C@@H](Nc3ncc(Cl)c(-c4cccnc4)n3)C2)cc1 [Compound 116]
4. C[Si](C)(C)C#CC(=O)Nc1ccc(C(=O)NC23CCCC(Nc4ncc(Cl)c(-c5c[nH]c6ccccc56)n4)(C2)C3)cc1 [Compound 130]

OUTPUT:
1. > 6.30
2. 5.30 to 6.30
3. > 6.30
4. > 6.30

Provide each entry's pIC50 from the list below.
1. CN(C)C/C=C/C(=O)Nc1ccc(CN(C(=O)OC(C)(C)C)[C@H]2CCC[C@@H](Nc3ncc(Cl)c(-c4c[nH]c5ccccc45)n3)C2)cc1 [Compound 127]
2. CN(C)C/C=C/C(=O)Nc1ccc(C(=O)NC2(C)CCCC(Nc3ncc(Cl)c(-c4c[nH]c5ccccc45)n3)C2)cc1 (stereo not shown) [compound 128]
3. C=CC(=O)Nc1ccc(C(=O)N[C@H]2CCC[C@@H](Nc3ncc(Cl)c(-c4c[nH]c5ccccc45)n3)C2)cc1 [Compound 112]
4. CN(C)C/C=C/C(=O)Nc1ccc(C(=O)N[C@@H]2CCC[C@@H](Nc3ncc(Cl)c(-c4c[nH]c5ccccc45)n3)C2)cc1 [compound 104]
5. CN(C)C/C=C/C(=O)Nc1ccc(C(=O)N[C@H]2CCC[C@@H](Nc3ncc(C4CC4)c(-c4c[nH]c5ccccc45)n3)C2)cc1 [Compound 115]

OUTPUT:
5.30 to 6.30
> 6.30
> 6.30
> 6.30
> 6.30

Provide each entry's pIC50 from the list below.
1. CN(C)C/C=C/C(=O)Nc1ccc(C(=O)NC23CCCC(Nc4ncc(Cl)c(-c5c[nH]c6ccccc56)n4)(C2)C3)cc1 [Compound 121]
2. C=CC(=O)Nc1ccc(C(=O)N[C@H]2CCC[C@@H](Nc3ncc(Cl)c(-c4c(C)noc4C)n3)C2)cc1 [Compound 145]

OUTPUT:
1: > 6.30; 2: > 6.30
